system: HPB-ALL; assay: selective drug sensitivity score (sDSS, relative to normal bone marrow) (sDSS (score)); higher = more potent and effective on the cell line relative to normal bone marrow cells; conditions: 72 h;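 further: ALL cell lines in 384-well plates, five doses spanning 10,000-fold, each plate scaled between vehicle and 100 µmol/L benzalkonium chloride controls, sDSS an adapted area-under-curve metric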
Use -0.2 as the dividing line for selective drug sensitivity score, with the line itself on the Satisfied side and lower values as Not satisfied.

>  <COMPOUND>
CC[C@@](C)(Nc1ccnc(-c2c[nH]c3ncccc23)n1)C(=O)NCC(F)(F)F [Decernotinib] (top concentration 10000 nM)

>  <CLASSIFICATION>
Not satisfied

$$$$

Now consider the entry below.
[Q] Does COc1cc2c(NC3CCN(C(C)C)CC3)nc(N3CCC(F)(F)CC3)nc2cc1OCCCN1CCCC1 [UNC0642] (top concentration 10000 nM) have a reported selective drug sensitivity score of at least -0.2?
[A] Not satisfied

---

test system: MOLT-4; assay: selective drug sensitivity score (sDSS, relative to normal bone marrow) (sDSS (score)); higher = more potent and effective on the cell line relative to normal bone marrow cells; conditions: 72 h
Could you please report measured selective drug sensitivity score for the items listed next?
Answers are plain numbers.

Illustrative cases are given below, each with its answer.
>  <MOLECULE>
Cn1cc(-c2cnn3c(N)c(Br)c([C@@H]4CCCNC4)nc23)cn1 [MK-8776] (top concentration 2500 nM)

>  <selective drug sensitivity score>
-1.46

$$$$
>  <MOLECULE>
COc1ccc(C[C@H](NC(=O)[C@H](C)NC(=O)CN2CCOCC2)C(=O)N[C@@H](Cc2ccccc2)C(=O)[C@@]2(C)CO2)cc1 [ONX-0914] (top concentration 10000 nM)

>  <selective drug sensitivity score>
1.9

$$$$
>  <MOLECULE>
COc1ccc(-c2nc(N3CCOCC3)c3sc(CN(C)c4ncc(C(=O)NO)cn4)cc3n2)cn1 [Fimepinostat (CUDC-907)] (top concentration 10000 nM)

>  <selective drug sensitivity score>
5.28

$$$$
>  <MOLECULE>
FC(F)(F)c1ccc(/C=C/c2nc(COc3ccc(CCCCn4ccnn4)cc3)co2)cc1 [Mubritinib] (top concentration 1000 nM)

>  <selective drug sensitivity score>
19.6

$$$$
>  <MOLECULE>
CCc1cncnc1N1CCN(Cc2nc3cc(C(F)(F)F)ccc3[nH]2)CC1 (top concentration 10000 nM)

>  <selective drug sensitivity score>
2.16

$$$$

Need selective drug sensitivity score for each of these molecules.
1. NS(=O)(=O)NCCNc1nonc1/C(=N/O)Nc1ccc(F)c(Br)c1 [Epacadostat] (top concentration 10000 nM)
2. CC[C@]1(O)C[C@H]2CN(CCc3c([nH]c4ccccc34)[C@@](C(=O)OC)(c3cc4c(cc3OC)N(C=O)[C@H]3[C@@](O)(C(=O)OC)[C@H](OC(C)=O)[C@]5(CC)C=CCN6CC[C@]43[C@@H]65)C2)C1 [Vincristine] (top concentration 1000 nM)
3. Cc1cc(Nc2cc(N3CCN(C)CC3)nc(/C=C/c3ccccc3)n2)n[nH]1 [ENMD-2076] (top concentration 10000 nM)
4. Cc1[nH]c2ccccc2c1CCNCc1ccc(/C=C/C(=O)NO)cc1 [Panobinostat] (top concentration 1000 nM)

[A]
[-0.16, 4.02, 5.74, 2.94]

Need selective drug sensitivity score for each of these molecules.
1. CC(=O)Nc1ccc(C(=O)Nc2ccccc2N)cc1 [Tacedinaline] (top concentration 1000 nM)
2. COc1nc(N)nc2c1ncn2[C@@H]1O[C@H](CO)[C@@H](O)[C@@H]1O [Nelarabine] (top concentration 10000 nM)
3. Cc1c(N)nc([C@H](CC(N)=O)NC[C@H](N)C(N)=O)nc1C(=O)N[C@H](C(=O)N[C@H](C)[C@@H](O)[C@H](C)C(=O)N[C@H](C(=O)NCCc1nc(-c2nc(C(=O)NCCC[S+](C)C)cs2)cs1)[C@@H](C)O)[C@@H](O[C@@H]1O[C@@H](CO)[C@@H](O)[C@H](O)[C@@H]1O[C@H]1O[C@H](CO)[C@@H](O)[C@H](OC(N)=O)[C@@H]1O)c1c[nH]cn1 [Bleomycin] (top concentration 10000 nM)
4. Cc1cc(Nc2cc(N3CCN(C)CC3)nc(Sc3ccc(NC(=O)C4CC4)cc3)n2)n[nH]1 [Tozasertib] (top concentration 10000 nM)
5. C[C@@H](Oc1cc(-n2cnc3ccc(CN4CCN(C)CC4)cc32)sc1C(N)=O)c1ccccc1C(F)(F)F (top concentration 10000 nM)
6. O=C1Cc2cc(C(=O)NC3C[C@H]4CC[C@@H](C3)N4S(=O)(=O)CC3CCN(CCCC(F)(F)F)CC3)c(Cl)cc2N1 (stereo partly drawn) (top concentration 10000 nM)
7. CN1CCN(c2ccc3nc(-c4c(N)c5c(F)cccc5[nH]c4=O)[nH]c3c2)CC1 [Dovitinib] (top concentration 10000 nM)
8. C[C@@H]1CN(CC(=O)Nc2ccc3c(c2)Cc2cccc(-c4cc(=O)cc(N5CCOCC5)o4)c2S3)C[C@H](C)O1 (top concentration 25000 nM)

[A]
1. 0.08
2. -0.72
3. 2.24
4. 15.6
5. 22.8
6. 0
7. -0.14
8. -0.08

Need selective drug sensitivity score for each of these molecules.
1. C1=N/C2=N/c3ccc(OCCN4CCCC4)c(c3)COC/C=C/COCc3cccc(c3)C(=C1)N2 [Pacritinib] (top concentration 10000 nM)
2. CN(C)CCCOc1ccc(-c2ccc3ncc4c(c3c2)n(C2CCOCC2)c(=O)n4C)cn1 [AZD0156] (top concentration 1000 nM)
3. CN(C)C(=N)NC(=N)N [Metformin] (top concentration 100000 nM)

[A]
1: -7.3; 2: -0.06; 3: -0.02

Need selective drug sensitivity score for each of these molecules.
1. CO[C@@H](C)Cn1c(=O)n(C)c2cnc3ccc(-c4cncc(C(C)(C)O)c4)cc3c21 (top concentration 2500 nM)
2. CNC(=O)c1ccccc1Nc1nc(Nc2ccc3c(c2OC)CCC[C@H](N2CCN(CCO)CC2)C3)ncc1Cl (top concentration 5000 nM)
3. Cc1ccc(Nc2nccc(N(C)c3ccc4c(C)n(C)nc4c3)n2)cc1S(N)(=O)=O [Pazopanib] (top concentration 10000 nM)

[A]
[3.38, -0.74, -1.06]

---

system: PEER; experiment: selective drug sensitivity score (sDSS, relative to normal bone marrow) (sDSS (score)); higher = more potent and effective on the cell line relative to normal bone marrow cells; conditions: 72 h
METRIC: selective drug sensitivity score

Need selective drug sensitivity score for each of these molecules.
1. CN(C)Cc1ccc(S(=O)(=O)n2ccc(/C=C/C(=O)NO)c2)cc1 [Resminostat] (top concentration 10000 nM)
2. CO[C@@H](C)Cn1c(=O)n(C)c2cnc3ccc(-c4cncc(C(C)(C)O)c4)cc3c21 (top concentration 2500 nM)
3. CCC(C)n1ncn(-c2ccc(N3CCN(c4ccc(OCC5COC(Cn6cncn6)(c6ccc(Cl)cc6Cl)O5)cc4)CC3)cc2)c1=O (stereo not drawn) [Itraconazole] (top concentration 5000 nM)

[A]
1. 8.24
2. 3.38
3. 0.88

Need selective drug sensitivity score for each of these molecules.
1. Cn1ncnc1[C@H]1c2n[nH]c(=O)c3cc(F)cc(c23)N[C@@H]1c1ccc(F)cc1 [Talazoparib] (top concentration 1000 nM)
2. O=C(CCNC(=O)c1ccc(OC(F)(F)F)cc1)N[C@@H]1CCCc2ccccc21 [ML390] (top concentration 50000 nM)

[A]
1: -3.72; 2: 5.5

Need selective drug sensitivity score for each of these molecules.
1. COc1cc(OC)cc(N(CCNC(C)C)c2ccc3ncc(-c4cnn(C)c4)nc3c2)c1 [Erdafitinib] (top concentration 1000 nM)
2. CC(=O)N(O)CCCCCNC(=O)CCC(=O)N(O)CCCCCNC(=O)CCC(=O)N(O)CCCCCN [Deferoxamine] (top concentration 10000 nM)
3. COc1cc2nccc(Oc3ccc(NC(=O)Nc4cc(C)on4)c(Cl)c3)c2cc1OC [Tivozanib] (top concentration 10000 nM)
4. NC(=O)Nc1cc(-c2cccc(F)c2)sc1C(=O)N[C@H]1CCCNC1 [AZD7762] (top concentration 1000 nM)
5. CC[C@@H]1C(=O)N(C)c2cnc(Nc3ccc(C(=O)N[C@H]4CC[C@H](N5CCN(CC6CC6)CC5)CC4)cc3OC)nc2N1C(C)C [Volasertib] (top concentration 1000 nM)
6. COc1cc2nccc(Oc3ccc(NC(=O)NC4CC4)c(Cl)c3)c2cc1C(N)=O [Lenvatinib] (top concentration 2500 nM)
7. CC[C@]1(O)C[C@H]2CN(CCc3c([nH]c4ccccc34)[C@@](C(=O)OC)(c3cc4c(cc3OC)N(C)[C@H]3[C@@](O)(C(=O)OC)[C@H](OC(C)=O)[C@]5(CC)C=CCN6CC[C@]43[C@@H]65)C2)C1 [Vinblastine] (top concentration 1000 nM)

[A]
[-0.36, 2.16, 12.2, -0.7, 18.7, 2.26, -0.9]

[Q] selective drug sensitivity score for CC(C)C[C@@H](C(=O)N[C@H](C(=O)OC1CCCC1)c1ccccc1)[C@H](O)C(=O)NO [Tosedostat] (top concentration 10000 nM) ?
[A] 0.06
